Data provenance is the supplement of paper PMC6555819.

- Test system: LXRa homodimer (NR concentration 270 nM)
- assay-protocol: PBM binding z-score (relative to random genomic background probes); higher = stronger binding; sequences stand for … in GC…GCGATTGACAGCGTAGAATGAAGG
# PBM binding z-score binned as lower: < -0.04; middle: ≥ -0.04 and < 0.8; upper: ≥ 0.8

[[record]]
sequence_entry = "GTACCAAGGTGTATAGGTCGTTGATGAGTAGGCG"
target_or_system = "LXRa homodimer (NR concentration 270 nM)"
assigned_label = "middle"

[[record]]
sequence_entry = "ACTATTAGTTGACTTAGGGTAACCGATACGACGC"
target_or_system = "LXRa homodimer (NR concentration 270 nM)"
assigned_label = "upper"

[[record]]
sequence_entry = "TAGCCTAGGTCATGCGGGCCAGTAAAGTGTCGGC"
target_or_system = "LXRa homodimer (NR concentration 270 nM)"
assigned_label = "lower"

[[record]]
sequence_entry = "CATTACGGGTCAAGGTTATAGCACGGGTGGTACG"
target_or_system = "LXRa homodimer (NR concentration 270 nM)"
assigned_label = "upper"

[[record]]
sequence_entry = "GGCACGAGGGCAAAGTTGATAGCATCTGTCGACG"
target_or_system = "LXRa homodimer (NR concentration 270 nM)"
assigned_label = "lower"

[[record]]
sequence_entry = "ATCGAAAGGTCGAGGTGCGTATAGAGAAAGGGAA"
target_or_system = "LXRa homodimer (NR concentration 270 nM)"
assigned_label = "lower"

[[record]]
sequence_entry = "CCTATCAGGCCAATCTGGGTCACTCAAGGCTTGA"
target_or_system = "LXRa homodimer (NR concentration 270 nM)"
assigned_label = "lower"

[[record]]
sequence_entry = "CCGACTGGGGCAGAAACGTTACCATACCATCCGG"
target_or_system = "LXRa homodimer (NR concentration 270 nM)"
assigned_label = "lower"

[[record]]
sequence_entry = "GAGACTGGGGCATCAGCAGGTTACCATAACTTAA"
target_or_system = "LXRa homodimer (NR concentration 270 nM)"
assigned_label = "middle"

[[record]]
sequence_entry = "CGTACTAGGTCAAGGACAGTGAATCTCCGCACGC"
target_or_system = "LXRa homodimer (NR concentration 270 nM)"
assigned_label = "middle"

[[record]]
sequence_entry = "CAAACTAGCTCAAGAGGTCAAAGTCCGCTTCCCG"
target_or_system = "LXRa homodimer (NR concentration 270 nM)"
assigned_label = "upper"

[[record]]
sequence_entry = "CTCGAAAGGTCGGGCTCAGGTGAGTATACCAAAC"
target_or_system = "LXRa homodimer (NR concentration 270 nM)"
assigned_label = "lower"

[[record]]
sequence_entry = "CCTACTCGGCCACGAAAGGTCATTGATTCAGTGA"
target_or_system = "LXRa homodimer (NR concentration 270 nM)"
assigned_label = "upper"

[[record]]
sequence_entry = "GCTCGCAGGACAAGGTCAGAGCTTTGTCCGTAGA"
target_or_system = "LXRa homodimer (NR concentration 270 nM)"
assigned_label = "lower"

[[record]]
sequence_entry = "CCTATTAGTTGACCATAAGGGCATCCGAAGCTCG"
target_or_system = "LXRa homodimer (NR concentration 270 nM)"
assigned_label = "middle"

[[record]]
sequence_entry = "ACTAGTTGGTCAGCTGAGGTCACCCACAATTCGG"
target_or_system = "LXRa homodimer (NR concentration 270 nM)"
assigned_label = "upper"

[[record]]
sequence_entry = "ATATGTAGGTTAAGGGACATTCAGGTTGGTTCGC"
target_or_system = "LXRa homodimer (NR concentration 270 nM)"
assigned_label = "middle"

[[record]]
sequence_entry = "CGGCCAAGGTCATAGGAGGTCAGTGAAGACAGAT"
target_or_system = "LXRa homodimer (NR concentration 270 nM)"
assigned_label = "upper"

[[record]]
sequence_entry = "CGTCCAAGGTCATAGGAGGTCAGTGTAGACAGAT"
target_or_system = "LXRa homodimer (NR concentration 270 nM)"
assigned_label = "upper"

[[record]]
sequence_entry = "CGTCCAAGGTCAGAGGTCAGTGAAGAGATGACGG"
target_or_system = "LXRa homodimer (NR concentration 270 nM)"
assigned_label = "upper"

[[record]]
sequence_entry = "GCTATTAGTTGAAAGGGCAACTGAATGATTCTCG"
target_or_system = "LXRa homodimer (NR concentration 270 nM)"
assigned_label = "middle"

[[record]]
sequence_entry = "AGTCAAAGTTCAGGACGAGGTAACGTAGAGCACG"
target_or_system = "LXRa homodimer (NR concentration 270 nM)"
assigned_label = "upper"

[[record]]
sequence_entry = "CTACCGAGGTGAACAAGGTCGTTGATTACTATTC"
target_or_system = "LXRa homodimer (NR concentration 270 nM)"
assigned_label = "middle"

[[record]]
sequence_entry = "TTACCAACGTGAAGGTCGTTGATCCCTCTGTAGA"
target_or_system = "LXRa homodimer (NR concentration 270 nM)"
assigned_label = "middle"

[[record]]
sequence_entry = "CCGACTGGGGCTTAAGGTTACCATAAGCCAGCCC"
target_or_system = "LXRa homodimer (NR concentration 270 nM)"
assigned_label = "lower"

[[record]]
sequence_entry = "TCAGACAGGTGAAGGTGACTCAGGTACGCAGTCG"
target_or_system = "LXRa homodimer (NR concentration 270 nM)"
assigned_label = "lower"

[[record]]
sequence_entry = "CAAACTAGGTCAAGCTCAAAGTCGGTTTGTGCCA"
target_or_system = "LXRa homodimer (NR concentration 270 nM)"
assigned_label = "middle"

[[record]]
sequence_entry = "CAAACTAGGTCACCGGAAGGTCAAAGTCCGCATG"
target_or_system = "LXRa homodimer (NR concentration 270 nM)"
assigned_label = "upper"

[[record]]
sequence_entry = "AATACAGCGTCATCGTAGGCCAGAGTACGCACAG"
target_or_system = "LXRa homodimer (NR concentration 270 nM)"
assigned_label = "lower"

[[record]]
sequence_entry = "CCTCGGAGGACAGAGGGTCAGAGCTGTCCGCTTT"
target_or_system = "LXRa homodimer (NR concentration 270 nM)"
assigned_label = "lower"


====

- Tested on: RARb:RXRa (NR concentration 270 nM, RXRa partner concentration 90 nM)
- assay-protocol: PBM binding z-score (relative to random genomic background probes); higher = stronger binding; sequences stand for … in GC…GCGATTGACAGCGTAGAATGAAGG
reported-endpoint: PBM binding z-score

[[record]]
sequence_entry = "GCGACTGGGGCATCAGCAGGTTACCATGACTTAA"
target_or_system = "RARb:RXRa (NR concentration 270 nM, RXRa partner concentration 90 nM)"
value_measured = 0.805

[[record]]
sequence_entry = "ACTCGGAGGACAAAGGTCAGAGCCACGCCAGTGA"
target_or_system = "RARb:RXRa (NR concentration 270 nM, RXRa partner concentration 90 nM)"
value_measured = 4.73

[[record]]
sequence_entry = "TCTAGTTGATCAAAGGTCACACACTCGAAATGCG"
target_or_system = "RARb:RXRa (NR concentration 270 nM, RXRa partner concentration 90 nM)"
value_measured = 4.85

[[record]]
sequence_entry = "ACAGTCAGGTGAGTGAAGGTAACTCAGCTGGACG"
target_or_system = "RARb:RXRa (NR concentration 270 nM, RXRa partner concentration 90 nM)"
value_measured = 0.775

[[record]]
sequence_entry = "CGTCCAAGGTCAGAGAGGTCAGAGAATGCCGAGT"
target_or_system = "RARb:RXRa (NR concentration 270 nM, RXRa partner concentration 90 nM)"
value_measured = 5.18

[[record]]
sequence_entry = "GATACAGGGTCAGCTAGAGGCCAGCGTATGGAAA"
target_or_system = "RARb:RXRa (NR concentration 270 nM, RXRa partner concentration 90 nM)"
value_measured = 4.21

[[record]]
sequence_entry = "TGAATGAGGTTATAAGATTAGGGAACGTTGCAAA"
target_or_system = "RARb:RXRa (NR concentration 270 nM, RXRa partner concentration 90 nM)"
value_measured = 1.15

[[record]]
sequence_entry = "AGAATTAGGTTATTAAGATCAGGGAATTGCGGTC"
target_or_system = "RARb:RXRa (NR concentration 270 nM, RXRa partner concentration 90 nM)"
value_measured = 0.932

[[record]]
sequence_entry = "ATCTCTAGGTAAAGATAGTTCAGTGAATGCAAAT"
target_or_system = "RARb:RXRa (NR concentration 270 nM, RXRa partner concentration 90 nM)"
value_measured = 0.654

[[record]]
sequence_entry = "CCTCCTGGGCCATTCAGAGGTCATTGATCATATG"
target_or_system = "RARb:RXRa (NR concentration 270 nM, RXRa partner concentration 90 nM)"
value_measured = 3.04

[[record]]
sequence_entry = "GCTCACGGGTCAAAGGTTATAGCATGAATAGAAT"
target_or_system = "RARb:RXRa (NR concentration 270 nM, RXRa partner concentration 90 nM)"
value_measured = 4.46

[[record]]
sequence_entry = "CCTATTAGTTGACCATAAGGGTAACCGAAGCTCG"
target_or_system = "RARb:RXRa (NR concentration 270 nM, RXRa partner concentration 90 nM)"
value_measured = 1.06

[[record]]
sequence_entry = "ACTATTAGTTGAGAGGAGGGCAACCGATAGGTTG"
target_or_system = "RARb:RXRa (NR concentration 270 nM, RXRa partner concentration 90 nM)"
value_measured = 0.991

[[record]]
sequence_entry = "CGTCCAAGGTGAAGGTCAGTGAAAGAGACTCGAA"
target_or_system = "RARb:RXRa (NR concentration 270 nM, RXRa partner concentration 90 nM)"
value_measured = 3.93

[[record]]
sequence_entry = "CAAACTAGGTCACACAGGTCAAAGTCCGTGCGTA"
target_or_system = "RARb:RXRa (NR concentration 270 nM, RXRa partner concentration 90 nM)"
value_measured = 4.59

[[record]]
sequence_entry = "CAGCCTAGGTCAGGGCCACTATAGGAGGAACGTT"
target_or_system = "RARb:RXRa (NR concentration 270 nM, RXRa partner concentration 90 nM)"
value_measured = 3.44

[[record]]
sequence_entry = "TTACCAAGGTGAATGGTCGTTGATGCACGCCTTG"
target_or_system = "RARb:RXRa (NR concentration 270 nM, RXRa partner concentration 90 nM)"
value_measured = 1.46

[[record]]
sequence_entry = "TCGAGTAGGTAAGTCGGGGCATTCAGCCAACATA"
target_or_system = "RARb:RXRa (NR concentration 270 nM, RXRa partner concentration 90 nM)"
value_measured = -0.182

[[record]]
sequence_entry = "CGAACTAGGTCAAGGACAGTGACTCTCCGCACGC"
target_or_system = "RARb:RXRa (NR concentration 270 nM, RXRa partner concentration 90 nM)"
value_measured = 3.95

[[record]]
sequence_entry = "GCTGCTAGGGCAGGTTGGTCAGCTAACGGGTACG"
target_or_system = "RARb:RXRa (NR concentration 270 nM, RXRa partner concentration 90 nM)"
value_measured = 1.16

[[record]]
sequence_entry = "CGAACGAGGGCATGAGTCGATAGCAAATGCCGAT"
target_or_system = "RARb:RXRa (NR concentration 270 nM, RXRa partner concentration 90 nM)"
value_measured = 1.81

[[record]]
sequence_entry = "AGTCAAAGTTCACTAGGTAGCGTAAGATTCAGCT"
target_or_system = "RARb:RXRa (NR concentration 270 nM, RXRa partner concentration 90 nM)"
value_measured = 4.68

[[record]]
sequence_entry = "CGAACTAGGTCATTGACAGGACTGTGAATAGTAA"
target_or_system = "RARb:RXRa (NR concentration 270 nM, RXRa partner concentration 90 nM)"
value_measured = 3.43

[[record]]
sequence_entry = "GCTTGTAGATCAAGGTTAAGAAAGACTAAGCTAA"
target_or_system = "RARb:RXRa (NR concentration 270 nM, RXRa partner concentration 90 nM)"
value_measured = 0.759

[[record]]
sequence_entry = "CTTACTGGGCCACGAAAGGTCATTGATTCAGTGA"
target_or_system = "RARb:RXRa (NR concentration 270 nM, RXRa partner concentration 90 nM)"
value_measured = 4.38

[[record]]
sequence_entry = "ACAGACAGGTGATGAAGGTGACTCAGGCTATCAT"
target_or_system = "RARb:RXRa (NR concentration 270 nM, RXRa partner concentration 90 nM)"
value_measured = 0.728

[[record]]
sequence_entry = "CAAACTAGGTCAAGCGGTCAAAGTCCGCTTCCCG"
target_or_system = "RARb:RXRa (NR concentration 270 nM, RXRa partner concentration 90 nM)"
value_measured = 4.62

[[record]]
sequence_entry = "ATAATGAGGTTAAGATCAGGGAAACAGAATACAT"
target_or_system = "RARb:RXRa (NR concentration 270 nM, RXRa partner concentration 90 nM)"
value_measured = 2.22

[[record]]
sequence_entry = "TATACAGTGTCAAAGGCCAGAGTACGAATGTCGA"
target_or_system = "RARb:RXRa (NR concentration 270 nM, RXRa partner concentration 90 nM)"
value_measured = 1.88

[[record]]
sequence_entry = "ATCTCTAGGTAAGACTCAGTACAGTGAAGAACGC"
target_or_system = "RARb:RXRa (NR concentration 270 nM, RXRa partner concentration 90 nM)"
value_measured = 0.147

